Biological target: human CTPS1 (Homo sapiens)
Construct: purchased Proteros biostructures GmbH
Sequence (P17812 whole entry): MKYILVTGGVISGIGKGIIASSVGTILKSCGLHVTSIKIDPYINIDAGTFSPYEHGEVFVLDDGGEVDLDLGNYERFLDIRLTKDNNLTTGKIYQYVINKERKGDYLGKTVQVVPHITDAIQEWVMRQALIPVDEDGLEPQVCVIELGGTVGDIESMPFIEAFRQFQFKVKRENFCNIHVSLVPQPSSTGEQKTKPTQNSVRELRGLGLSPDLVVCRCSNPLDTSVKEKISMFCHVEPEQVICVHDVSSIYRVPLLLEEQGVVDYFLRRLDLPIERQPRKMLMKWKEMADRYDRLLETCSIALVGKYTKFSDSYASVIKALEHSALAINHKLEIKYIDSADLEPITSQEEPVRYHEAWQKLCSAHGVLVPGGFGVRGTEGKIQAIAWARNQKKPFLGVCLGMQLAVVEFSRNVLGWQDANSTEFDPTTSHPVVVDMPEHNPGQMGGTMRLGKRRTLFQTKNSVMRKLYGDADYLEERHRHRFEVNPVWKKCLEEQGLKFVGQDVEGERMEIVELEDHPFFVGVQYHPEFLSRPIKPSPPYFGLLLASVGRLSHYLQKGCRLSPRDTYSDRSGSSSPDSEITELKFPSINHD
Experiment: Human CTPS1 enzyme inhibition (ADP-Glo Max assay)
Assay type: biochemical
Settings: Table 18, additional potency data, 25° C., read-out: CTPS1 (Human CTPS1 Enzyme Inhibition data grouped by potency range)
pIC50: −log10 of the molar value.
Exercise: state measured pIC50 for each of the compounds provided.

Example compounds with recorded pIC50:
>>> reported_result("Cc1cc(-c2cncc(Cl)c2)c(C)cc1NC(=O)C(C)(C)c1csc(NS(=O)(=O)C2CC2)n1")
"6.00 to 7.00"
>>> reported_result("CCOc1cncc(-c2ccc(NC(=O)C(C)(C)c3csc(NS(=O)(=O)C4CC4)n3)c(C(F)(F)F)c2)n1")
"> 7.00"
>>> reported_result("COc1cncc(-c2ccc(N3CCC(c4csc(NS(=O)(=O)C5CC5)n4)C3=O)cc2)c1 (centres unmarked)")
"6.00 to 7.00"
>>> reported_result("CCOc1cncc(-c2ccc(NC(=O)C(OC)c3csc(NS(=O)(=O)C4CC4)n3)c(C#N)c2)n1 (centres unmarked)")
"> 7.00"
>>> reported_result("Cc1c(NC(=O)C(C)(C)c2csc(NS(=O)(=O)C3CC3)n2)ccc(-c2cncc(Cl)c2)c1F")
"> 7.00"
>>> reported_result("CCOc1cc(NC(=O)C(C)(C)c2csc(NS(=O)(=O)C3CC3)n2)ccc1-c1cncc(Cl)c1")
"6.00 to 7.00"
>>> reported_result("CCOc1cncc(-c2ccc(NC(=O)C(CC)c3csc(NS(=O)(=O)C4CC4)n3)c(C)c2)n1 (centres unmarked)")
"> 7.00"

Moving on to the next compound.
input: Query: pIC50; subject: CCOc1cncc(-c2ccc(NC(=O)C(CC)c3csc(NS(=O)(=O)C4CC4)n3)c(F)c2)n1 (single isomer, unassigned) [T413]
output: > 7.00

Cited source for all entries: patent US11655246B2
